Target: neutral endopeptidase (NEP) (Homo sapiens)
Sequence (P08473 whole entry, species assumed): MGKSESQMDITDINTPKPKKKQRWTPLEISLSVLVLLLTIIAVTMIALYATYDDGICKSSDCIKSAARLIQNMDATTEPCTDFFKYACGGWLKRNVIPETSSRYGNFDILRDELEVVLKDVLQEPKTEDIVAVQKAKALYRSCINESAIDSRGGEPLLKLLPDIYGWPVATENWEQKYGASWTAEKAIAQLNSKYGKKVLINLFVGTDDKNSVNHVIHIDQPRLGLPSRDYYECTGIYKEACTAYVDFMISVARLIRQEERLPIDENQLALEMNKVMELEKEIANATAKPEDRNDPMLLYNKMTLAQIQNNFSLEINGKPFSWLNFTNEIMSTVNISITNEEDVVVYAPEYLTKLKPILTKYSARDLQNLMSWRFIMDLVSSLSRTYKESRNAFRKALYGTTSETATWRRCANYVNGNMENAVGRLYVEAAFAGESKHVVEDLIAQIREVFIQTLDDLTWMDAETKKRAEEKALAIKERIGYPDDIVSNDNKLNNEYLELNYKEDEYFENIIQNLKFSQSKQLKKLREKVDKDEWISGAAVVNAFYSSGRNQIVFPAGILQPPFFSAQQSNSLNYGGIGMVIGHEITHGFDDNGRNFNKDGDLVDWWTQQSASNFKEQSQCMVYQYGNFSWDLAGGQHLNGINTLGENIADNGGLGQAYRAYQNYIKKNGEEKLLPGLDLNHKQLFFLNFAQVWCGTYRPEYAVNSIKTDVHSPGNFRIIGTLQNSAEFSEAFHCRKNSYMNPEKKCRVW
Experiment: Degradation of Met-enkephalin by NEP alone and in the presence of inhibitors
Conditions: Met-enkephalin 0.0413 mM, inhibitor 0.156 mM, NEP 5.687 nM; Tris–HCl 50 mM pH 7.4; 37 °C; 0, 30, 60, 90, 120 min; RP-HPLC; mean ± SEM, triplicates
Residues, ends and D or L forms follow the SMILES beside them.
Readout Label: t1/2, half-life of Met-enkephalin incubated with NEP in the presence of inhibitor (min)
Answer with a number only, understood to be in min.

// known answers, use as guide
Molecule	Target Or System	Unit Of Measure	Result
CCCCCCCCCCCC(=O)N[C@@H](CCCCN)C(=O)N[C@@H](CCCCN)C(=O)N[C@@H](CCC(N)=O)C(=O)N[C@@H](Cc1c[nH]cn1)C(=O)N[C@@H](CC(N)=O)C(=O)N1CCC[C@H]1C(=O)N[C@@H](CCCNC(=N)N)C(=O)O [V] (HELM PEPTIDE1{[CCCCCCCCCCCC(=O)[*:2]].K.K.Q.H.N.P.R}$$$$V2.0)	neutral endopeptidase (NEP) (Homo sapiens)	min	30
CCCCCCCCCCCCCCCCCC(=O)N[C@@H](CCCCN)C(=O)N[C@@H](CCCCN)C(=O)N[C@@H](CCC(N)=O)C(=O)N[C@@H](Cc1c[nH]cn1)C(=O)N[C@@H](CC(N)=O)C(=O)N1CCC[C@H]1C(=O)N[C@@H](CCCNC(=N)N)C(=O)O [VIII] (HELM PEPTIDE1{[CCCCCCCCCCCCCCCCCC(=O)[*:2]].K.K.Q.H.N.P.R}$$$$V2.0)	neutral endopeptidase (NEP) (Homo sapiens)	min	724
CCCCCCCCCCCCCCCC(=O)N[C@@H](CCCCN)C(=O)N[C@@H](CCCCN)C(=O)N[C@@H](CCC(N)=O)C(=O)N[C@@H](Cc1c[nH]cn1)C(=O)N[C@@H](CC(N)=O)C(=O)N1CCC[C@H]1C(=O)N[C@@H](CCCNC(=N)N)C(=O)O [VII] (HELM PEPTIDE1{[CCCCCCCCCCCCCCCC(=O)[*:2]].K.K.Q.H.N.P.R}$$$$V2.0)	neutral endopeptidase (NEP) (Homo sapiens)	min	199

Continue with the next molecule.
# molecule CCCCCCCCCCCCCC(=O)N[C@@H](CCCCN)C(=O)N[C@@H](CCCCN)C(=O)N[C@@H](CCC(N)=O)C(=O)N[C@@H](Cc1c[nH]cn1)C(=O)N[C@@H](CC(N)=O)C(=O)N1CCC[C@H]1C(=O)N[C@@H](CCCNC(=N)N)C(=O)O [VI] (HELM PEPTIDE1{[CCCCCCCCCCCCCC(=O)[*:2]].K.K.Q.H.N.P.R}$$$$V2.0) ; its t1/2, half-life of Met-enkephalin incubated with NEP in the presence of inhibitor = 35

Data origin: paper PMC9695599
